Below, each entry is listed with its recorded inhibition at 1 µM.
Assayed system: BRAF (Homo sapiens, UniProt P15056)
Construct: purchased Invitrogen
Sequence (P15056 whole entry): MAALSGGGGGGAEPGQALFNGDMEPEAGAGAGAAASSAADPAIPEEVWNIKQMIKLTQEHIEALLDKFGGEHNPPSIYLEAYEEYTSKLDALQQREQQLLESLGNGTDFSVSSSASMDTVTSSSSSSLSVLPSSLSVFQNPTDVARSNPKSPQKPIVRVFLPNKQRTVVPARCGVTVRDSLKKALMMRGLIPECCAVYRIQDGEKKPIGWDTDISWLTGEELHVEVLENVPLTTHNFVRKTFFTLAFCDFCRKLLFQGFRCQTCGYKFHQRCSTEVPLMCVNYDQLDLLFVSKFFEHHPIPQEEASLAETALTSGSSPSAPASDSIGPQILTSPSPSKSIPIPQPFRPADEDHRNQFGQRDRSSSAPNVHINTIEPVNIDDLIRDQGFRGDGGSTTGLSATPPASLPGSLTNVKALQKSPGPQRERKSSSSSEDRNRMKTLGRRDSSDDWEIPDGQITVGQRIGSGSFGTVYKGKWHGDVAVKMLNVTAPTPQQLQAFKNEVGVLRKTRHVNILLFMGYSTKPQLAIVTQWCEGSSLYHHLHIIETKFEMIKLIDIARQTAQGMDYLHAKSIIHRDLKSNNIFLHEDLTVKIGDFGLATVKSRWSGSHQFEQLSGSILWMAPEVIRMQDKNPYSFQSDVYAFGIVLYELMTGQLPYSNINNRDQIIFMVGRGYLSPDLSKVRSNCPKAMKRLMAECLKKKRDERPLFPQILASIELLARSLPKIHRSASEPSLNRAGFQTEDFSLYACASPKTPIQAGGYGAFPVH
Protocol text: Z'-LYTE kinase inhibition assay, BRAF
Format: biochemical
Assay conditions: 1 μM compound; Z'-LYTE method
Observable: inhibition at 1 µM

{"columns": ["Compound structure", "Observable", "Observed"],
 "data": [
  ["O=C(Nc1cc(F)c(F)c(C(=O)c2ccc3ncccc3c2)c1F)c1cccc(F)c1", "inhibition at 1 µM", "< 70%"],
  ["CCCS(=O)(=O)Nc1cc(F)c(F)c(C(=O)c2ccc3ncccc3c2)c1F", "inhibition at 1 µM", "70 to 89%"],
  ["O=C(Nc1ccc(F)cc1)Nc1cc(F)c(F)c(C(=O)c2ccc3ncccc3c2)c1F", "inhibition at 1 µM", "< 70%"],
  ["CCCS(=O)(=O)Nc1cc(F)c(F)c(C(=O)c2ccc3ncncc3c2)c1F", "inhibition at 1 µM", "> 89%"],
  ["O=C(Nc1cc(F)c(F)c(C(=O)c2ccc3ncccc3c2)c1F)c1cc(F)cc(F)c1", "inhibition at 1 µM", "< 70%"]
]}

###

Tested on: Colo-205 (human colon carcinoma cell)
Protocol text: Inhibition of cancer cell growth, MTS assay, Colo-205
Format: cell-based
Assay conditions: 72 h treatment
pIC50: −log10 of the molar value.
Observable: pIC50

{"columns": ["Compound structure", "Assayed system", "Observable", "Observed"],
 "data": [
  ["O=C(Nc1cc(F)c(F)c(C(=O)c2ccc3ncccc3c2)c1F)c1cc(F)cc(F)c1", "Colo-205 (human colon carcinoma cell)", "pIC50", "< 5.30"],
  ["O=C(Nc1ccc(F)c(F)c1)Nc1cc(F)c(F)c(C(=O)c2ccc3ncccc3c2)c1F", "Colo-205 (human colon carcinoma cell)", "pIC50", "< 5.30"],
  ["CCCS(=O)(=O)Nc1cc(F)c(F)c(C(=O)c2ccc3ncncc3c2)c1F", "Colo-205 (human colon carcinoma cell)", "pIC50", "> 6.00"],
  ["CCCS(=O)(=O)Nc1cc(F)c(F)c(C(=O)c2ccc3ncccc3c2)c1F", "Colo-205 (human colon carcinoma cell)", "pIC50", "5.30 to 6.00"],
  ["O=C(Nc1cc(F)c(F)c(C(=O)c2ccc3ncccc3c2)c1F)c1ccc(F)c(F)c1", "Colo-205 (human colon carcinoma cell)", "pIC50", "< 5.30"],
  ["O=C(Nc1cccc(F)c1)Nc1cc(F)c(F)c(C(=O)c2ccc3ncccc3c2)c1F", "Colo-205 (human colon carcinoma cell)", "pIC50", "< 5.30"],
  ["O=C(Nc1cc(F)c(F)c(C(=O)c2ccc3ncccc3c2)c1F)c1ccc(F)cc1", "Colo-205 (human colon carcinoma cell)", "pIC50", "< 5.30"],
  ["O=C(Nc1cc(F)c(F)c(C(=O)c2ccc3ncccc3c2)c1F)c1cccc(F)c1", "Colo-205 (human colon carcinoma cell)", "pIC50", "< 5.30"],
  ["O=C(Nc1cc(F)cc(F)c1)Nc1cc(F)c(F)c(C(=O)c2ccc3ncccc3c2)c1F", "Colo-205 (human colon carcinoma cell)", "pIC50", "< 5.30"],
  ["O=C(Nc1ccc(F)cc1)Nc1cc(F)c(F)c(C(=O)c2ccc3ncccc3c2)c1F", "Colo-205 (human colon carcinoma cell)", "pIC50", "< 5.30"]
]}

###

Tested on: A375 (human melanoma cell, BRAF V600E Mutant)
Protocol text: Inhibition of cancer cell growth, MTT assay, A375
Format: cell-based
Assay conditions: A-375, 72 h treatment
pIC50: −log10 of the molar value.
pIC50 overview

{"columns": ["Compound", "pIC50"],
 "data": [
  ["CCCS(=O)(=O)Nc1cc(F)c(F)c(C(=O)c2ccc3ncccc3c2)c1F [Compound C001]", "> 6.00"],
  ["O=C(Nc1cc(F)c(F)c(C(=O)c2ccc3ncccc3c2)c1F)c1ccc(F)c(F)c1 [Compound C009]", "< 5.30"],
  ["O=C(Nc1ccc(F)c(F)c1)Nc1cc(F)c(F)c(C(=O)c2ccc3ncccc3c2)c1F [Compound C004]", "< 5.30"],
  ["O=C(Nc1cc(F)c(F)c(C(=O)c2ccc3ncccc3c2)c1F)c1cccc(F)c1 [Compound C006]", "< 5.30"],
  ["O=C(Nc1cc(F)cc(F)c1)Nc1cc(F)c(F)c(C(=O)c2ccc3ncccc3c2)c1F [Compound C005]", "5.30 to 6.00"],
  ["O=C(Nc1cccc(F)c1)Nc1cc(F)c(F)c(C(=O)c2ccc3ncccc3c2)c1F [Compound C002]", "< 5.30"],
  ["O=C(Nc1cc(F)c(F)c(C(=O)c2ccc3ncccc3c2)c1F)c1ccc(F)cc1 [Compound C007]", "< 5.30"],
  ["O=C(Nc1cc(F)c(F)c(C(=O)c2ccc3ncccc3c2)c1F)c1cc(F)cc(F)c1 [Compound C008]", "< 5.30"],
  ["O=C(Nc1ccc(F)cc1)Nc1cc(F)c(F)c(C(=O)c2ccc3ncccc3c2)c1F [Compound C003]", "< 5.30"],
  ["CCCS(=O)(=O)Nc1cc(F)c(F)c(C(=O)c2ccc3ncncc3c2)c1F [Compound C010]", "> 6.00"]
]}
